Numbers sourced from patent US20230106523A1.

test: Human trial: blood serum levels of quercetin after ingestion, HPLC-UV; type: in vivo; settings: human subject, 80 mg quercetin oral, time 180 min
Quantity measured: concentration at 180 min

1. O=c1c(O)c(-c2ccc(O)c(O)c2)oc2cc(O)cc(O)c12 [Quercetin] ... 0 ng/mL

---

assay: Human trial: blood serum levels of quercetin after ingestion, HPLC-UV; format: in vivo; conditions: human subject, 80 mg quercetin oral, time 30 min
Quantity measured: concentration at 30 min (ng/mL)

1) O=c1c(O)c(-c2ccc(O)c(O)c2)oc2cc(O)cc(O)c12 ... 2.3

---

assay: Human trial: blood serum levels of quercetin after ingestion, HPLC-UV; assay type: in vivo; details: human subject, 80 mg quercetin oral, time 120 min
Quantity measured: concentration at 120 min (ng/mL)

1) O=c1c(O)c(-c2ccc(O)c(O)c2)oc2cc(O)cc(O)c12 [Quercetin] ... 0
